# measured.on: UniProt:Q96RI1
# Sequence (Q96RI1 whole entry, the tested form may be a part): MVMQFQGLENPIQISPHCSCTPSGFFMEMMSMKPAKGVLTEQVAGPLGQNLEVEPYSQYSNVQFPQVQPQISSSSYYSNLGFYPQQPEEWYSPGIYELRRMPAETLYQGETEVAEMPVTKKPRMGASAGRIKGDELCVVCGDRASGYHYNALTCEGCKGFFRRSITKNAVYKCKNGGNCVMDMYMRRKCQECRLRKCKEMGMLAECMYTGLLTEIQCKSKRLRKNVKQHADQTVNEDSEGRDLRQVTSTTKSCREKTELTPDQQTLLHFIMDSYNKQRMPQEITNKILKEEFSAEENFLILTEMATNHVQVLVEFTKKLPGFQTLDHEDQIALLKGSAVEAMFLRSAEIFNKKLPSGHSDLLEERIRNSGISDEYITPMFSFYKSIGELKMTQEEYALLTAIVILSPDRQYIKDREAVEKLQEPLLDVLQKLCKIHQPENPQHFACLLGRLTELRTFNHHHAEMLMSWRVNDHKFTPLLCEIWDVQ
# test.description: Agonist activity at human GST-tagged FXR ligand binding domain assessed as recruitment of Src-1 peptide […] by AlphaScreen assay
# condition.info: read-out: EC50
Parameter: EC50. Scope: all listed entries.
assay.endpoint: EC50 (µM)

* Cc1ccccc1-n1nc(C)c2c1NC(=O)[C@H](C)S[C@@H]2c1ccc(-c2ccoc2)cc1 (racemic) | 3.5
* Cc1ccccc1-n1nc(C)c2c1NC(=O)[C@H](C)S[C@@H]2c1ccc(-c2ccco2)cc1 (racemic) | 3.6
* COc1cccc(Oc2ccc([C@H]3S[C@@H](C)C(=O)Nc4c3c(C)nn4-c3ccccc3C)cc2)c1 (racemic) | 1.7
* COc1ccccc1Oc1ccc([C@H]2S[C@@H](C)C(=O)Nc3c2c(C)nn3-c2ccccc2C)cc1 (racemic) | 1.7
* COc1ccc(C2SC(C)C(=O)Nc3c2c(C)nn3-c2ccccc2C)c(OC)c1 (stereo unspecified) | 10.5
* Cc1ccccc1-n1nc(C)c2c1NC(=O)[C@H](C)S[C@@H]2c1ccc(-c2ccccc2)cc1 (racemic) | 0.99
* COc1cc([C@H]2S[C@@H](C)C(=O)Nc3c2c(C)nn3-c2ccccc2C)ccc1Oc1ccccc1 (racemic) | 1.9
* CCOc1cccc(-c2ccc([C@H]3S[C@@H](C)C(=O)Nc4c3c(C)nn4-c3ccccc3C)cc2)c1 (racemic) | 3.5
* COc1cccc(-c2ccc([C@H]3S[C@@H](C)C(=O)Nc4c3c(C)nn4-c3ccccc3C)cc2)c1 (racemic) | 1.8
* Cc1nn(-c2ccccc2C(C)C)c2c1[C@@H](c1ccc(Oc3ccccc3)cc1)S[C@@H](C)C(=O)N2 (racemic) | 1.9
* Cc1nn(-c2ccccc2F)c2c1C(c1ccc(Oc3ccccc3)cc1)SC(C)C(=O)N2 (mixture of isomers) | 3.9
* COc1ccc(Oc2ccc([C@H]3S[C@@H](C)C(=O)Nc4c3c(C)nn4-c3ccccc3C)cc2)cc1 (racemic) | 2.2
* Cc1ccccc1-n1nc(C)c2c1NC(=O)[C@H](C)S[C@@H]2c1ccc(-c2cccs2)cc1 (racemic) | 2.6
* COc1ccc(-c2ccc([C@H]3S[C@@H](C)C(=O)Nc4c3c(C)nn4-c3ccccc3C)cc2)cc1 (racemic) | 1.2
* Cc1nn(-c2ccccc2I)c2c1C(c1ccc(Oc3ccccc3)cc1)SC(C)C(=O)N2 (racemic) | 1.3
* Cc1ccccc1-n1nc(C)c2c1NC(=O)[C@H](C)S[C@@H]2c1ccc(-c2ccsc2)cc1 (racemic) | 1.4
